Where a name gives a salt, the structure may show the parent alone.
quantity_measured: melting point

Answered cases to consult:
1. NC(N)=NC(=O)c1cc(Cl)c2c(c1)S(=O)(=O)Cc1cccc(Cl)c1O2 (as salt: sulfonic acid salt) : 270 to 271 °C
2. CCCCCN1CCN(c2cc(Cl)c3c(c2)CS(=O)(=O)c2cc(C(=O)NC(=N)N)cc(C)c2O3)CC1.CS(=O)(=O)O.CS(=O)(=O)O : 250 to 251 °C
3. CC(=O)N(CCN1CCOCC1)c1cc(Cl)c2c(c1)CS(=O)(=O)c1cc(C(=O)NC(=N)N)cc(C)c1O2.CS(=O)(=O)O.CS(=O)(=O)O : 198 to 200 °C

-- ask Output melting point of CS(=O)(=O)O.CS(=O)(=O)O.Cc1cc(C(=O)NC(=N)N)cc2c1Oc1c(Cl)cc(N(CCN3CCCC3)C(=O)OCC(C)C)cc1CS2(=O)=O
-- reply 198 to 200 °C

-- ask Output melting point of Cc1cc(C(=O)N=C(N)N)cc2c1Oc1c(Cl)cc(N3CCN(C4CC4)CC3=O)cc1CS2(=O)=O (as salt: mesylate) [Example 58, dimesylate]
-- reply 195 to 196 °C

-- ask Output melting point of CCCCCCCCCCN1CCN(c2cc(Cl)c3c(c2)CS(=O)(=O)c2cc(C(=O)NC(=N)N)cc(C)c2O3)CC1.CS(=O)(=O)O.CS(=O)(=O)O
-- reply 184 to 185 °C

-- ask Output melting point of CS(=O)(=O)O.CS(=O)(=O)O.Cc1cc(C(=O)NC(=N)N)cc2c1Oc1c(Cl)cc(NCCNCc3ccccc3)cc1CS2(=O)=O
-- reply 232 to 233 °C

-- ask Output melting point of CS(=O)(=O)O.Cc1cc(C(=O)NC(=N)N)cc2c1Oc1c(Cl)cc(S(=O)(=O)N3CCOCC3)cc1CS2(=O)=O
-- reply 292 to 293 °C

-- ask Output melting point of CS(=O)(=O)O.CS(=O)(=O)O.CS(=O)(=O)O.Cc1cc(C(=O)NC(=N)N)cc2c1Oc1c(Cl)cc(NCCNCCc3ccccn3)cc1CS2(=O)=O
-- reply 196 to 198 °C

-- ask Output melting point of CS(=O)(=O)O.Cc1cc(C(=O)NC(=N)N)cc2c1Oc1c(Cl)cc(NC(=O)CO)cc1CS2(=O)=O
-- reply 180 to 182 °C

-- ask Output melting point of CS(=O)(=O)O.CS(=O)(=O)O.Cc1cc(C(=O)NC(=N)N)cc2c1Oc1c(Cl)cc(NC(=O)CN3CCCC3)cc1CS2(=O)=O
-- reply 190 to 192 °C

-- ask Output melting point of CS(=O)(=O)O.CS(=O)(=O)O.Cc1cc(C(=O)NC(=N)N)cc2c1Oc1c(Cl)cc(S(=O)(=O)N3CCN(C)CC3)cc1CS2(=O)=O
-- reply 187 to 189 °C

====

Where a name gives a salt, the structure may show the parent alone.
This section presents molecules with their documented melting point values.

1. CS(=O)(=O)O.N=C(N)NC(=O)c1ccc2c(c1)S(=O)(=O)Cc1cc(Cl)ccc1O2 [Example 3] : 280 to 282 °C
2. CC(=O)N(CCN(C)C)c1cc(Cl)c2c(c1)CS(=O)(=O)c1cc(C(=O)NC(=N)N)cc(C)c1O2.CS(=O)(=O)O.CS(=O)(=O)O.CS(=O)(=O)O [Example 100] : 128 to 130 °C
3. CNCCNc1cc(Cl)c2c(c1)CS(=O)(=O)c1cc(C(=O)NC(=N)N)cc(C)c1O2.CS(=O)(=O)O.CS(=O)(=O)O [Example 71] : 250 to 251 °C
4. CS(=O)(=O)O.CS(=O)(=O)O.CS(=O)(=O)O.Cc1cc(C(=O)NC(=N)N)cc2c1Oc1c(Cl)cc(N3CCN(Cc4cccc(N)c4)CC3)cc1CS2(=O)=O [Example 127] : 214 to 215 °C
5. Cc1cc(C(=O)N=C(N)N)cc2c1Oc1c(Cl)cc(N3CCN(Cc4ccccc4)CC3)cc1CS2(=O)=O (as salt: mesylate) [Example 118, dimesylate] : 280 to 285 °C

-- ask Output melting point of CS(=O)(=O)O.CS(=O)(=O)O.Cc1cc(C(=O)NC(=N)N)cc2c1Oc1c(Cl)cc(N3CCN(C(C)C)CC3=O)cc1CS2(=O)=O [Example 60]
-- reply 196 to 198 °C

-- ask Output melting point of CS(=O)(=O)O.CS(=O)(=O)O.CS(=O)(=O)O.Cc1cc(C(=O)NC(=N)N)cc2c1Oc1c(Cl)cc(N(CCN3CCCCC3)C(=O)C3CC3)cc1CS2(=O)=O [Example 95]
-- reply 276 °C

-- ask Output melting point of Cc1cc(C(=O)N=C(N)N)cc2c1Oc1c(cccc1C(C)C)CS2(=O)=O (as salt: sulfonic acid salt) [Example 31]
-- reply 252 to 253 °C

-- ask Output melting point of CNCC(=O)Nc1cc(Cl)c2c(c1)CS(=O)(=O)c1cc(C(=O)NC(=N)N)cc(C)c1O2.CS(=O)(=O)O.CS(=O)(=O)O [Example 146]
-- reply 188 to 190 °C

====

Where a name gives a salt, the structure may show the parent alone.
quantity_measured: melting point

Answered cases to consult:
1) CS(=O)(=O)O.CS(=O)(=O)O.Cc1cc(C(=O)NC(=N)N)cc2c1Oc1c(Cl)cc(NC(=O)CNC3CCC3)cc1CS2(=O)=O [Example 143] : 190 to 192 °C
2) Cc1cc2c(cc1C(=O)N=C(N)N)S(=O)(=O)Cc1ccccc1N2 (as salt: sulfonic acid salt) [Example 183] : 292 to 294 °C

Continue with the molecule presented below.
-- ask Output melting point of CS(=O)(=O)O.CS(=O)(=O)O.CS(=O)(=O)O.Cc1cc(C(=O)NC(=N)N)cc2c1Oc1c(Cl)cc(N(CCN3CCCC3)C(=O)CNC3CC3)cc1CS2(=O)=O [Example 150]
-- reply 150 to 152 °C

====

molecular target: NHE-1 (Homo sapiens, UniProt P19634); construct: NHE-1 isoform which is predominantly present in human platelets; endogenous in cells; assay: Primary screening assay in human platelets (acidified human platelet swelling assay); settings: concentration required to inhibit 50% of NHE-1 activity in isolated human platelets; mean of three readings, PRP from three donors
Sequence (P19634 whole entry, canonical isoform): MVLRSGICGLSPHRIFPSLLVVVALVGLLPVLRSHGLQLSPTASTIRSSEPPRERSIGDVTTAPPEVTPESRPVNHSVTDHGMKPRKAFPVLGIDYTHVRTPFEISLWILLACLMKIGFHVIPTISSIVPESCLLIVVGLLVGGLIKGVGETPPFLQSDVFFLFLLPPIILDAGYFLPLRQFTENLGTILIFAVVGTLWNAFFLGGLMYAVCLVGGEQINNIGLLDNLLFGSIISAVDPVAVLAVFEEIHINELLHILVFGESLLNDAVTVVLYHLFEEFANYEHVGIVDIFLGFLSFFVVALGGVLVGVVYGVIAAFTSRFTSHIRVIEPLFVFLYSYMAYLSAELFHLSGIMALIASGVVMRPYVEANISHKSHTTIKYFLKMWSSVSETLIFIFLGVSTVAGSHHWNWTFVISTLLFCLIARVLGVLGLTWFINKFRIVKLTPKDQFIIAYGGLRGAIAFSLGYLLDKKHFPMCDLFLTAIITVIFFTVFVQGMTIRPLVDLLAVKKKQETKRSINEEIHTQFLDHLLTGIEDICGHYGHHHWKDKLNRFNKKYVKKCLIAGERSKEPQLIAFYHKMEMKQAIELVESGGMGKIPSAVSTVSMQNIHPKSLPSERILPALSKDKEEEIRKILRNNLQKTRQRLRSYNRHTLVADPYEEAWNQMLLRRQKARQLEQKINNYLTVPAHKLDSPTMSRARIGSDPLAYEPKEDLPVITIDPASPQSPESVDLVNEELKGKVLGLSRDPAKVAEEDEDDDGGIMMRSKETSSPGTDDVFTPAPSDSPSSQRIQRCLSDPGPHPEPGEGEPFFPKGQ
pIC50: −log10 of the molar value.
quantity_measured: pIC50

Answered cases to consult:
1. CCN(CCN1CCCC1)c1cc(Cl)c2c(c1)CS(=O)(=O)c1cc(C(=O)N=C(N)N)cc(C)c1O2 [Example 73, dimesylate] : 7.49
2. Cc1cc(C(=O)N=C(N)N)cc2c1Oc1c(Cl)cc(CN)cc1CS2(=O)=O : 7.52
3. Cc1cc(C(=O)N=C(N)N)cc2c1Oc1c(cccc1C(C)C)CS2(=O)=O : 6.70
4. Cc1cc(C(=O)N=C(N)N)cc2c1Oc1c(Cl)cc(S(=O)(=O)NCc3cccnc3)cc1CS2(=O)=O [Example 52, dimesylate] : 7.10
5. Cc1cc2c(cc1C(=O)N=C(N)N)S(=O)(=O)Cc1ccccc1O2 : 7.00
6. NC(N)=NC(=O)c1cc(Cl)c2c(c1)S(=O)(=O)Cc1cccc(Cl)c1O2 : 7.15
7. Cc1cc(N)cc2c1Oc1c(Cl)cc(C(=O)N=C(N)N)cc1S(=O)(=O)C2 : 7.40
8. Cc1cc(C(=O)N=C(N)N)cc2c1Oc1c(Cl)cc(N)cc1CS2(=O)=O : 7.70
9. Cc1cc2c(cc1C(=O)N=C(N)N)S(=O)(=O)Cc1ccccc1N2 : 7.00
10. Cc1cc(C(=O)N=C(N)N)cc2c1Oc1c(Cl)cc(N3CCN(Cc4ccccc4)CC3)cc1CS2(=O)=O [Example 118, dimesylate] : 7.00

I. Cc1cc(C(=O)N=C(N)N)cc2c1Oc1c(Cl)cc(N3CCN(C4CC4)CC3=O)cc1CS2(=O)=O [Example 58, dimesylate]
II. Cc1cc(C(=O)N=C(N)N)cc2c1N(C)c1c(Cl)cccc1C(C)S2(=O)=O (stereo not shown)
III. Cc1cc(C(=O)N=C(N)N)cc2c1Oc1c(Cl)cc(NCCn3ccnc3)cc1CS2(=O)=O [Example 64, dimesylate]
-- ask rank_up(items): orders items by reported pIC50 in ascending numerical order. // list labels; follow requested order
-- reply II, I, III

====

Counter-ions that a name gives are not always drawn.
quantity_measured: melting point

1. Cc1cc(C(=O)N=C(N)N)cc2c1Oc1c(Cl)cc(S(=O)(=O)NCc3cccnc3)cc1CS2(=O)=O (as salt: mesylate) [Example 52, dimesylate] : 271 to 273 °C
2. CS(=O)(=O)O.CS(=O)(=O)O.Cc1cc(C(=O)NC(=N)N)cc2c1Oc1c(Cl)cc(N3CCN(C(=O)c4ccc[nH]4)CC3)cc1CS2(=O)=O : 306 to 307 °C
3. Cc1cc2c(cc1C(=O)N=C(N)N)S(=O)(=O)Cc1ccccc1O2 (as salt: sulfonic acid salt) : 272 to 274 °C
4. CS(=O)(=O)O.CS(=O)(=O)O.CS(=O)(=O)O.Cc1cc(C(=O)NC(=N)N)cc2c1Oc1c(Cl)cc(N3CCN(CCN(C)C)CC3)cc1CS2(=O)=O : 243 to 245 °C

-- ask Output melting point of CS(=O)(=O)O.CS(=O)(=O)O.CS(=O)(=O)O.Cc1ccc(CNc2cc(Cl)c3c(c2)CS(=O)(=O)c2cc(C(=O)NC(=N)N)cc(C)c2O3)s1
-- reply 230 to 232 °C

-- ask Output melting point of CS(=O)(=O)O.CS(=O)(=O)O.Cc1cc(C(=O)NC(=N)N)cc2c1Oc1c(Cl)cc(NC(=O)CNC3CCCC3)cc1CS2(=O)=O
-- reply 190 to 192 °C

-- ask Output melting point of COc1ccccc1CNCCNc1cc(Cl)c2c(c1)CS(=O)(=O)c1cc(C(=O)NC(=N)N)cc(C)c1O2.CS(=O)(=O)O.CS(=O)(=O)O
-- reply 224 to 225 °C

-- ask Output melting point of CS(=O)(=O)O.CS(=O)(=O)O.Cc1cc(C(=O)NC(=N)N)cc2c1Oc1c(Cl)cc(N(CCN(C)C)C(=O)C(C)(C)C)cc1CS2(=O)=O
-- reply 171 to 173 °C

-- ask Output melting point of CS(=O)(=O)O.CS(=O)(=O)O.Cc1cc(C(=O)NC(=N)N)cc2c1Oc1c(Cl)cc(NCCNCc3cccs3)cc1CS2(=O)=O
-- reply 243 to 245 °C

-- ask Output melting point of CS(=O)(=O)O.CS(=O)(=O)O.CS(=O)(=O)O.Cc1cc(C(=O)NC(=N)N)cc2c1Oc1c(Cl)cc(N3CCNCC3)cc1CS2(=O)=O
-- reply 203 to 205 °C

-- ask Output melting point of CS(=O)(=O)O.CS(=O)(=O)O.CS(=O)(=O)O.CS(=O)(=O)O.Cc1cc(C(=O)NC(=N)N)cc2c1Oc1c(Cl)cc(N3CCN(CCN4CCNCC4)CC3)cc1CS2(=O)=O
-- reply 182 to 184 °C

-- ask Output melting point of CCN(CCN1CCOCC1)c1cc(Cl)c2c(c1)CS(=O)(=O)c1cc(C(=O)NC(=N)N)cc(C)c1O2.CS(=O)(=O)O.CS(=O)(=O)O
-- reply 248 to 250 °C

Attribution: patent US8183234B2
